- targetDesc: Transient receptor potential cation channel subfamily A member 1 (Homo sapiens, UniProt O75762)
- assaySummary: Antagonist activity at TRPA1 channel
- Format: functional
measuredParameter: IC50 (µM)

                             compoundsmiles  quantityunit  operator  value
0  CN1C(=O)c2cccc(CC(=O)Nc3nc(-c4ccc(Cl)cc4)cs3)c2C1=O            µM         =    0.5
1  CN1C(=O)c2cccc(CC(=O)Nc3nc(-c4cc(F)c(C(F)(F)F)c(F)c4)cs3)c2C1=O            µM         =   0.25
2  CN1C(=O)c2cccc(CC(=O)Nc3nc(-c4ccc(I)cc4)cs3)c2C1=O            µM         <   0.25
3  CN1C(=O)c2cccc(CC(=O)Nc3nc(-c4ccc(Cl)c(Cl)c4)cs3)c2C1=O            µM         =   0.25
4  Cc1cc(-c2csc(NC(=O)Cc3cccc4c3C(=O)N(C)C4=O)n2)ccc1Cl            µM         =   0.25
5  CN1C(=O)c2cccc(CC(=O)Nc3nc(-c4cccc(C(F)(F)F)c4)cs3)c2C1=O            µM         =    0.5

* * *

- targetDesc: Transient receptor potential cation channel subfamily A member 1 (Homo sapiens, UniProt O75762)
- assaySummary: Antagonist activity at TRPA1 channel at 1 uM
- Format: functional
The threshold is inclusive: inhibition of exactly 80% counts as y; values below receive n.

>>> df
                             compoundsmiles  classification
0  CN1C(=O)c2cccc(CC(=O)Nc3nc(-c4ccc(I)cc4)cs3)c2C1=O               n
1  CN1C(=O)c2cccc(CC(=O)Nc3nc(-c4ccc(C(F)(F)F)c(F)c4)cs3)c2C1=O               y
2  Cc1cc(-c2csc(NC(=O)Cc3cccc4c3C(=O)N(C)C4=O)n2)ccc1Cl               y
3  CN1C(=O)c2cccc(CC(=O)Nc3nc(-c4cc(F)c(C(F)(F)F)c(F)c4)cs3)c2C1=O               y
4  CN1C(=O)c2cccc(CC(=O)Nc3nc(-c4ccc(Cl)c(Cl)c4)cs3)c2C1=O               y
5  CC(C)c1ccc(NC(=O)Cc2cccc3c2C(=O)N(C)C3=O)cc1               n
6  CN1C(=O)c2cccc(CC(=O)Nc3nc(-c4cc(F)c(OC(F)F)c(F)c4)cs3)c2C1=O               y
7  CN1C(=O)c2cccc(CC(=O)Nc3nc(-c4cccc(C(F)(F)F)c4)cs3)c2C1=O               n
8  CN1C(=O)c2cccc(CC(=O)Nc3nc(-c4ccc(Cl)cc4)cs3)c2C1=O               n

* * *

- targetDesc: UniProt Q6RI86
- Sequence (Q6RI86 whole entry): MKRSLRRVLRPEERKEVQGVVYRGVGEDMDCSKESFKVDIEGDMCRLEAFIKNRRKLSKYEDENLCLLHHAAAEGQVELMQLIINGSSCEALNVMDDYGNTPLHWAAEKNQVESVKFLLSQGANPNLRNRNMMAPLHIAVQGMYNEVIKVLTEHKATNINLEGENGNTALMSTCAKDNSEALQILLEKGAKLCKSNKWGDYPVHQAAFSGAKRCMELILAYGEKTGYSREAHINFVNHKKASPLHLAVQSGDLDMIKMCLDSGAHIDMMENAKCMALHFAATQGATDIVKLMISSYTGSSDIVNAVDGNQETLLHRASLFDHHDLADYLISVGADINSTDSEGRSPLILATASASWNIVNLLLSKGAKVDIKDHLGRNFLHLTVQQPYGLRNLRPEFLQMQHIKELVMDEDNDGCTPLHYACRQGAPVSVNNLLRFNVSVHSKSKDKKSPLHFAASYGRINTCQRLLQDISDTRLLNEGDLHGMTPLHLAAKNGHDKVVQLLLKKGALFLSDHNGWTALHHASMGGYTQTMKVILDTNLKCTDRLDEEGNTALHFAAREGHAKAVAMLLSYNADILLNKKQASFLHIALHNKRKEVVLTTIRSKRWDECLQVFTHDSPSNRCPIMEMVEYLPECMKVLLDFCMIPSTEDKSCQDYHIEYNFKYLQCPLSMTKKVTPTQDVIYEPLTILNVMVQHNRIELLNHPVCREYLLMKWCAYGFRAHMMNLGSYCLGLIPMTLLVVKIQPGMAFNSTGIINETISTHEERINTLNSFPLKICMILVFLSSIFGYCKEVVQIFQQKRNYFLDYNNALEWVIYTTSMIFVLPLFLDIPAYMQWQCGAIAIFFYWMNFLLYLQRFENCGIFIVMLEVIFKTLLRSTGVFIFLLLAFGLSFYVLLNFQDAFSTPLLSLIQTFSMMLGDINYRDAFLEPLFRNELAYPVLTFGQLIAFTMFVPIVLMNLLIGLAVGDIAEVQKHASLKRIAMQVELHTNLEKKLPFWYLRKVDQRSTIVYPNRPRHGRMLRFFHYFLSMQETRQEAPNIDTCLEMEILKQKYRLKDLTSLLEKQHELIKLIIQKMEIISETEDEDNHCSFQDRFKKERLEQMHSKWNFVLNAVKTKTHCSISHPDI
- assaySummary: Agonist activity at rat TRPA1 channel expressed in HEK293 cells assessed as increase in intracellular calcium influx
- Assay type: functional, cell-based
pEC50: −log10 of the molar value.
Form field: pEC50 (one value per entry).
measuredParameter: pEC50

>>> df
                                   compound  measuredparameter  value
0  CCCCCc1cc(O)c2c(c1C(=O)O)OC(C)(C)[C@@H]1CCC(C)=C[C@@H]21 [TETRAHYDROCANNABINOL ACID]              pEC50   6.62
1  C=C(C)[C@@H]1CCC(C)=C[C@H]1c1c(O)cc(CCCCC)cc1O              pEC50   7.02
2  CCCCCc1cc(O)c2c(c1)OC(C)(CCC=C(C)C)C=C2 (stereo unspecified)              pEC50   7.22
3   CCCCCc1cc(O)c(C/C=C(\C)CCC=C(C)C)c(O)c1              pEC50   5.47
4  C=C(C)[C@@H]1CCC(C)=C[C@H]1c1c(O)cc(CCCCC)c(C(=O)O)c1O              pEC50   4.92
5  CCCCCc1cc(O)c2c(c1)OC(C)(C)[C@@H]1CCC(C)=C[C@@H]21              pEC50   6.64

* * *

Form field: EC50 (one value per entry).
- targetDesc: Transient receptor potential cation channel subfamily A member 1 (Mus musculus, UniProt Q8BLA8)
- Sequence (Q8BLA8 whole entry): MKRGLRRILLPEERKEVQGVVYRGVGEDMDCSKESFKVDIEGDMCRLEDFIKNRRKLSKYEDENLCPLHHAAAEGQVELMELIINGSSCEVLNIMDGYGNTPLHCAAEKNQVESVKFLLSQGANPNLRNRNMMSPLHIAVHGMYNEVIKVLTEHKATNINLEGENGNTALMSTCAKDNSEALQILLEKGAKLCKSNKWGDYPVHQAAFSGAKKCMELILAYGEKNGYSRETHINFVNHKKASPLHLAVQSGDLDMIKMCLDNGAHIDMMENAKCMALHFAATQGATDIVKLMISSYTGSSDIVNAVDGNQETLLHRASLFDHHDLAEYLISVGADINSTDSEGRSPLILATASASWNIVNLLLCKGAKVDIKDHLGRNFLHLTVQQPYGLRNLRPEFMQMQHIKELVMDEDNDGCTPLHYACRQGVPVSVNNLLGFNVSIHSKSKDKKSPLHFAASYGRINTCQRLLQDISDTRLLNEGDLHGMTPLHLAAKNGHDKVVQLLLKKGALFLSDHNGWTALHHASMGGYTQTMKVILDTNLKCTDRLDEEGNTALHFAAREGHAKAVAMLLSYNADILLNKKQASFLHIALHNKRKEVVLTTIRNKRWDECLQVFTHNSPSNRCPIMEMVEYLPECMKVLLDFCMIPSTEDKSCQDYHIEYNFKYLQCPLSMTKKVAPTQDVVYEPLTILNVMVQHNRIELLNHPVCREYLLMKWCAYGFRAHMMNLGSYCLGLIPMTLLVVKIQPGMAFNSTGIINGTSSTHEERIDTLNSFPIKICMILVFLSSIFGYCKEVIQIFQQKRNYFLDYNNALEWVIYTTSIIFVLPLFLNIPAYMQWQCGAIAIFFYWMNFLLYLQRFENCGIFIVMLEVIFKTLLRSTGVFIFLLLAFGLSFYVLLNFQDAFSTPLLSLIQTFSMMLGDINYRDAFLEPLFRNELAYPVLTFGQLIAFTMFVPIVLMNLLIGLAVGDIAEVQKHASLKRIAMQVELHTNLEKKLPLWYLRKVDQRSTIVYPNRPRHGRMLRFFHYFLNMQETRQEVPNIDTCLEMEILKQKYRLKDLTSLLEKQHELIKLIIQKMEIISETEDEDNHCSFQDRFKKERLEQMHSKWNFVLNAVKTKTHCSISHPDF
- assaySummary: Agonist activity at mouse TRPA1 channel expressed in CHO cells assessed as increase in intracellular calcium influx
- Assay type: functional, cell-based
measuredParameter: EC50

In [3]: df
Out[3]:
                                   compound    value
0  CCOC(=O)C1=C(C)NC(C)=C(C(=O)OC)C1c1cccc([N+](=O)[O-])c1 (stereo not drawn)   3.8 µM
1  COC(=O)C1=C(C)NC(C)=C([N+](=O)[O-])C1c1ccccc1C(F)(F)F (stereo not drawn)  32.7 µM
2  COC(=O)C1=C(C)NC(C)=C(C(=O)OC)C1c1ccccc1[N+](=O)[O-]   0.4 µM

* * *

- targetDesc: Transient receptor potential cation channel subfamily M member 8 (Homo sapiens, UniProt Q7Z2W7)
- Sequence (Q7Z2W7 whole entry): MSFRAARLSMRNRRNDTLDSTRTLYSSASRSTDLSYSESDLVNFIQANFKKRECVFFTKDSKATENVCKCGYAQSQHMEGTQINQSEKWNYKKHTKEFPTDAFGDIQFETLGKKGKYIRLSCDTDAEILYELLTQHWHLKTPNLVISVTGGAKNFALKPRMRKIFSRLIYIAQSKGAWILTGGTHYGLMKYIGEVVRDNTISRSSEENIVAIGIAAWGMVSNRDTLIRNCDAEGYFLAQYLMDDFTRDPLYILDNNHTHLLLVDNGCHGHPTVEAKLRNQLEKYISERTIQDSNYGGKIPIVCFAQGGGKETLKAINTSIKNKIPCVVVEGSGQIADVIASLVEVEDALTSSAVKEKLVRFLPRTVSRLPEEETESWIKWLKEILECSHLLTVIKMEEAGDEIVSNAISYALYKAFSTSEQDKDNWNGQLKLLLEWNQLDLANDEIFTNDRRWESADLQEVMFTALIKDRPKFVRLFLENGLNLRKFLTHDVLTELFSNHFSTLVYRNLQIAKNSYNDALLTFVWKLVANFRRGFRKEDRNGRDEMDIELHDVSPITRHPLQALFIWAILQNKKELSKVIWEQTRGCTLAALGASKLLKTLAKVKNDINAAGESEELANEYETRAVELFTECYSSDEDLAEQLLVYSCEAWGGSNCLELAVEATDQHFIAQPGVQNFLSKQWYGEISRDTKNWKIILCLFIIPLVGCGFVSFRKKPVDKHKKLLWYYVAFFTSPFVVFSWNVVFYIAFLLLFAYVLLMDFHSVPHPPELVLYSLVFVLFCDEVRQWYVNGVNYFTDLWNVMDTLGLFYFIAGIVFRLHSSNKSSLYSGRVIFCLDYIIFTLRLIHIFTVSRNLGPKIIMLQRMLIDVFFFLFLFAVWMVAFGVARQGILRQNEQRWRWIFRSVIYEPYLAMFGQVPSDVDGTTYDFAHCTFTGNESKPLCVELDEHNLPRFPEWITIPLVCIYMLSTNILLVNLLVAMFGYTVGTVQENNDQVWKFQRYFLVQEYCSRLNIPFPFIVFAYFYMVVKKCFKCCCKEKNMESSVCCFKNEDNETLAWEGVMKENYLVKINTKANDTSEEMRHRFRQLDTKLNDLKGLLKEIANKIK
- assaySummary: Antagonist activity at human TRPM8 channel
measuredParameter: IC50

                             compoundsmiles    value
0  CC(C)c1ccc(NC(=O)Cn2cnc3c2c(=O)n(C)c(=O)n3C)cc1  > 30 µM

* * *

- targetDesc: Transient receptor potential cation channel subfamily A member 1 (Homo sapiens, UniProt O75762)
- assaySummary: Antagonist activity at human TRPA1 channel assessed as inhibition of nifedipine-induced intracellular calcium influx
- Assay type: functional, cell-based
pIC50: −log10 of the molar value.
measuredParameter: pIC50

>>> print(df.to_string())
                             compoundsmiles  value
0  CC(C)c1ccc(NC(=O)Cn2cnc3c2c(=O)n(C)c(=O)n3C)cc1   5.74

* * *

- targetDesc: Transient receptor potential cation channel subfamily A member 1 (Mus musculus, UniProt Q8BLA8)
- assaySummary: Activation of mouse TRPA1 channel
pEC50: −log10 of the molar value.
measuredParameter: pEC50

>>> df
                                   compound  measuredparameter  value
0  CC(C)c1ccc(NC(=O)Cn2cnc3c2c(=O)n(C)c(=O)n3C)cc1              pEC50   3.00
1  CCC(C)c1ccc(NC(=O)Cn2cnc3c2c(=O)n(C)c(=O)n3C)cc1 (configuration not stated)              pEC50   2.60

* * *

- targetDesc: Transient receptor potential cation channel subfamily A member 1 (Mus musculus, UniProt Q8BLA8)
- assaySummary: Agonist activity at mouse TRPA1 channel expressed in HEK293 cells assessed as increase in intracellular calcium influx
- Format: functional, cell-based
measuredParameter: EC50 (nM)

                             compoundsmiles  value
0  CC1(C)C[C@H]2C=C(C=O)[C@]3(C=O)C[C@]3(C)[C@H]2C1   2580

* * *

- targetDesc: Transient receptor potential cation channel subfamily V member 1 (Rattus norvegicus)
- Sequence (O35433 whole entry): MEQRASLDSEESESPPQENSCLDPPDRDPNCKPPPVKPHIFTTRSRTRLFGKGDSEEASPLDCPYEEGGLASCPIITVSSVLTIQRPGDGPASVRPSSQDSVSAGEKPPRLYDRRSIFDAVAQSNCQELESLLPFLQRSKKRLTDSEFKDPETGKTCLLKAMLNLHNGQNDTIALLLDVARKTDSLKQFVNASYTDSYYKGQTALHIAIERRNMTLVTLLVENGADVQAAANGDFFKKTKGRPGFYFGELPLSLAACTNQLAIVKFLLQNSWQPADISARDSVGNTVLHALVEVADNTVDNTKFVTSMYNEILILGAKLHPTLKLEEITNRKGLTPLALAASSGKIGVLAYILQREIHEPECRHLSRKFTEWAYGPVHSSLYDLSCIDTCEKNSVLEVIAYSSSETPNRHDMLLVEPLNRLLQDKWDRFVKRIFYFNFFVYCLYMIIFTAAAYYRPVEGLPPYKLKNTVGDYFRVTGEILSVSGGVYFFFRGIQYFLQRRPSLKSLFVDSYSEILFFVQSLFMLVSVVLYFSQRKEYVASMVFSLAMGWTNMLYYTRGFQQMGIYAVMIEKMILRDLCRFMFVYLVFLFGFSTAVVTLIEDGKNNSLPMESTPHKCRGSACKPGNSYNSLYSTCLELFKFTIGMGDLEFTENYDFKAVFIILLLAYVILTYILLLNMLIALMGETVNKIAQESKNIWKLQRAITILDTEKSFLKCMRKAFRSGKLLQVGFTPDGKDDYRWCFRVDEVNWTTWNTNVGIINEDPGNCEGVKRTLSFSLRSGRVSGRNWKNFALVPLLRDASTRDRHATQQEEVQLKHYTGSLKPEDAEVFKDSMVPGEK
- assaySummary: Activation of rat TRPV1 channel
pEC50: −log10 of the molar value.
measuredParameter: pEC50

>>> df
                                   compound                                targetdesc  value
0  C=CCS[S+]([O-])CC=C (stereo unspecified)  Transient receptor potential cation channel subfamily V member 1 (Rattus norvegicus)   4.29

* * *

Form field: pEC50 (one value per entry).
- targetDesc: Transient receptor potential cation channel subfamily A member 1 (Homo sapiens, UniProt O75762)
- assaySummary: Activation of TRPA1 channel
pEC50: −log10 of the molar value.
measuredParameter: pEC50

                                    compound  measuredparameter  value
 0       CC(C)CCC(=O)c1ccoc1 [PERILLAKETONE]              pEC50   4.71
 1  CCCCC[C@H](O)/C=C/[C@H]1C=CC(=O)[C@@H]1CCCCCCC(=O)O [PROSTAGLANDIN A1]              pEC50   4.82
 2      C/C=C/C=C/C=C\CC/C=C/C(=O)NCC(C)(C)O              pEC50   5.18
 3           CN1CCC[C@H]1c1cccnc1 [NICOTINE]              pEC50   4.77
 4                         C=CC=O [ACROLEIN]              pEC50   6.10
 5                C/C=C/C=O [CROTONALDEHYDE]              pEC50   4.80
 6  CCCCC/C=C/C=C1/C(=O)C=C[C@@H]1C/C=C\CCCC(=O)O              pEC50   5.25
 7   C=C(C)C1CC=C(C=O)CC1 (stereo not drawn)              pEC50   4.39
 8  CCCCC[C@H](O)/C=C/[C@H]1C=CC(=O)[C@H]1C/C=C\CCCC(=O)O              pEC50   4.65
 9  CCCCC[C@H](O)/C=C/[C@H]1C=CC(=O)[C@@H]1C/C=C\CCCC(=O)O [PROSTAGLANDIN A2]              pEC50   4.62
10                                C=CCSSCC=C              pEC50   3.90
11  S=C=NCCc1ccccc1 [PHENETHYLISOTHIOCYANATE]              pEC50   5.00
12    S=C=NCc1ccccc1 [BENZYL ISOTHIOCYANATE]              pEC50   6.50
